# assayed system: AMH-R2 (Homo sapiens)
# Construct: GST
# Sequence (Q16671 18-573): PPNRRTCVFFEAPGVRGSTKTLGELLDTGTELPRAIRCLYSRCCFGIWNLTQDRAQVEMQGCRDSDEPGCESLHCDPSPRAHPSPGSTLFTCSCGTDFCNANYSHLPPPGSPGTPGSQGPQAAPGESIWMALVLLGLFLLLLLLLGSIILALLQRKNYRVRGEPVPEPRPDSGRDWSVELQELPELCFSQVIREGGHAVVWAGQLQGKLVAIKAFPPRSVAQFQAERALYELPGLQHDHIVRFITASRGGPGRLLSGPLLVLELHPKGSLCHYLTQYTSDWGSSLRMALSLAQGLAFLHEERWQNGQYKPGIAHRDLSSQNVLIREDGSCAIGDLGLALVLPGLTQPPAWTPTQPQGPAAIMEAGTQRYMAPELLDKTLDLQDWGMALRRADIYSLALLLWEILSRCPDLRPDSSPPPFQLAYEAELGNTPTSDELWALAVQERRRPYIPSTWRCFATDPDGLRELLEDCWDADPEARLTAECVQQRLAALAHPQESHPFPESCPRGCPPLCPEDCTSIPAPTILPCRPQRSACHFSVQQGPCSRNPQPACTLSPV
# measurement description: peptide microarray assay identifying AMH receptor binding peptides
# particulars: microarray signal, replicate 2
# Description: In view of the several actions of AMH, and because of the need for AMH receptor agonists and/or antagonist that can modify the activity of one or more of the AMH receptors, provided herein are AMH receptor binding peptides that modulate the activity of the AMH receptor, as described herein. Briefly, it was hypothesized that peptides that bind AMH receptors could be generated based on the amino acid sequence of the AMH biding site of the AMH-R2 receptor. […]
Square brackets hold non-standard residues; d marks the D form. Ends that are not written are not given here.
parameter measured: Rep 2

[[record]]
substance = "FNGPSArNFYrHDVaVS (FNGPSA[dR]NFY[dR]HDV[dA]VS) [SEQ ID NO: 14]"
assayed_system = "AMH-R2 (Homo sapiens)"
observed_measurement = 58385

[[record]]
substance = "EGlQSSAYNNYwrklVa (EG[dL]QSSAYNNY[dW][dR][dK][dL]V[dA]) [SEQ ID NO: 17]"
assayed_system = "AMH-R2 (Homo sapiens)"
observed_measurement = 62155

[[record]]
substance = "VGwSFAPNGYrlSGVlG (VG[dW]SFAPNGY[dR][dL]SGV[dL]G) [SEQ ID NO: 9]"
assayed_system = "AMH-R2 (Homo sapiens)"
observed_measurement = 65153

[[record]]
substance = "GSwSGAHNFrkSGVlSG (GS[dW]SGAHNF[dR][dK]SGV[dL]SG) [SEQ ID NO: 11]"
assayed_system = "AMH-R2 (Homo sapiens)"
observed_measurement = 63787

[[record]]
substance = "VGPSVAYNYrVSGValG (VGPSVAYNY[dR]VSGV[dA][dL]G) [SEQ ID NO: 6]"
assayed_system = "AMH-R2 (Homo sapiens)"
observed_measurement = 65391

[[record]]
substance = "YGFPSArVNrYwNrHDa (YGFPSA[dR]VN[dR]Y[dW]N[dR]HD[dA]) [SEQ ID NO: 16]"
assayed_system = "AMH-R2 (Homo sapiens)"
observed_measurement = 62472


###

Each entry below carries its reported Rep 2.
# assayed system: AMH-R2 (Homo sapiens, UniProt Q16671)
# Construct: GST
# Sequence (Q16671 18-573): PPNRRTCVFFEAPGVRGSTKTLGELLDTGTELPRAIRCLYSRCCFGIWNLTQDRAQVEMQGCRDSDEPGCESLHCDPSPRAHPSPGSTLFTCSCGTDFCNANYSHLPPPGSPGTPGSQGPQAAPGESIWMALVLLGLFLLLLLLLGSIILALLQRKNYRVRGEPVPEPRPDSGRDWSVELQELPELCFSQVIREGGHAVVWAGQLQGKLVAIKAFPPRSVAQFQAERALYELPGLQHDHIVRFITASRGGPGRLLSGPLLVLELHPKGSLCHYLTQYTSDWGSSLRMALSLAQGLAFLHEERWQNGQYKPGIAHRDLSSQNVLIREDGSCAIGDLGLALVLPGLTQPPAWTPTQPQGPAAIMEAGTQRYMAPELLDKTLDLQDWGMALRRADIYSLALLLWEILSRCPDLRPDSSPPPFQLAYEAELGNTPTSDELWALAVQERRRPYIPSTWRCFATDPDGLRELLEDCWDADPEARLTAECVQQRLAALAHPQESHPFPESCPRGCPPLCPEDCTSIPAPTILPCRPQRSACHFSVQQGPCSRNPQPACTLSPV
# measurement description: peptide microarray assay identifying AMH receptor binding peptides
# particulars: microarray signal, replicate 2
Square brackets hold non-standard residues; d marks the D form. Ends that are not written are not given here.
parameter measured: Rep 2

[[record]]
substance = "rGrSQAYNErSGValSG ([dR]G[dR]SQAYNE[dR]SGV[dA][dL]SG) [SEQ ID NO: 10]"
observed_measurement = 65250

[[record]]
substance = "kGGYSNAYkHNPrVlGS ([dK]GGYSNAY[dK]HNP[dR]V[dL]GS) [SEQ ID NO: 7]"
observed_measurement = 65329

[[record]]
substance = "GlQwSFANGQwrGalSG (G[dL]Q[dW]SFANGQ[dW][dR]G[dA][dL]SG) [SEQ ID NO: 12]"
observed_measurement = 62943

[[record]]
substance = "rGSYSNlFANSGErVGV ([dR]GSYSN[dL]FANSGE[dR]VGV) [SEQ ID NO: 13]"
observed_measurement = 63551


###

# assayed system: AMH-R2 (Homo sapiens)
# Construct: GST
# Sequence (Q16671 18-573): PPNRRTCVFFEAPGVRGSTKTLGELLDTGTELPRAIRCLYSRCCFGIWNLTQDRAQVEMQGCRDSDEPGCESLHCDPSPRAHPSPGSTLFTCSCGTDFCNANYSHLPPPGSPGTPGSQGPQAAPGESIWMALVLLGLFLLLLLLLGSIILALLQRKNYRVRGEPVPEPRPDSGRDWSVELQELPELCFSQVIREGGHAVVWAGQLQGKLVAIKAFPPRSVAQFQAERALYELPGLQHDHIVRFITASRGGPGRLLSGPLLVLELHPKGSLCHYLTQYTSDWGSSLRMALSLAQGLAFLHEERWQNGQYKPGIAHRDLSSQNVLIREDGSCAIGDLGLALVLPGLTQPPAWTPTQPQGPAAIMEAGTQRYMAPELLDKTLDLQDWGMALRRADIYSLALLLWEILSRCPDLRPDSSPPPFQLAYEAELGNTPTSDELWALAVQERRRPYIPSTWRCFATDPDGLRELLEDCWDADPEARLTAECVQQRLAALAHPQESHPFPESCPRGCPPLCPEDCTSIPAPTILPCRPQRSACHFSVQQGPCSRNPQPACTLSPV
# measurement description: peptide microarray assay identifying AMH receptor binding peptides
# particulars: microarray signal, average of Rep 1 and Rep 2
Square brackets hold non-standard residues; d marks the D form. Ends that are not written are not given here.
Each entry below carries its reported Average.
parameter measured: Average

[[record]]
substance = "rGSYSNlFANSGErVGV ([dR]GSYSN[dL]FANSGE[dR]VGV) [SEQ ID NO: 13]"
observed_measurement = 63774

[[record]]
substance = "VGPSVAYNYrVSGValG (VGPSVAYNY[dR]VSGV[dA][dL]G) [SEQ ID NO: 6]"
observed_measurement = 65427

[[record]]
substance = "kGGYSNAYkHNPrVlGS ([dK]GGYSNAY[dK]HNP[dR]V[dL]GS) [SEQ ID NO: 7]"
observed_measurement = 65425

[[record]]
substance = "EGlQSSAYNNYwrklVa (EG[dL]QSSAYNNY[dW][dR][dK][dL]V[dA]) [SEQ ID NO: 17]"
observed_measurement = 61198

[[record]]
substance = "VGwSFAPNGYrlSGVlG (VG[dW]SFAPNGY[dR][dL]SGV[dL]G) [SEQ ID NO: 9]"
observed_measurement = 65165

[[record]]
substance = "YGFPSArVNrYwNrHDa (YGFPSA[dR]VN[dR]Y[dW]N[dR]HD[dA]) [SEQ ID NO: 16]"
observed_measurement = 61418

[[record]]
substance = "GSwSGAHNFrkSGVlSG (GS[dW]SGAHNF[dR][dK]SGV[dL]SG) [SEQ ID NO: 11]"
observed_measurement = 64458

[[record]]
substance = "GlQwSFANGQwrGalSG (G[dL]Q[dW]SFANGQ[dW][dR]G[dA][dL]SG) [SEQ ID NO: 12]"
observed_measurement = 63783

[[record]]
substance = "FNGPSArNFYrHDVaVS (FNGPSA[dR]NFY[dR]HDV[dA]VS) [SEQ ID NO: 14]"
observed_measurement = 61835

[[record]]
substance = "rGrSQAYNErSGValSG ([dR]G[dR]SQAYNE[dR]SGV[dA][dL]SG) [SEQ ID NO: 10]"
observed_measurement = 64591

